Test system: 15-PGDH luciferase fusion construct in V9m reporter cell line
Assay: 15-PGDH-luciferase fusion gene reporter induction, V9m cells
Format: cell-based
Details: read-out: V9M-SC3 Reporter activity ([…]) (%), V9m reporter cells, […] compound; % induction of luciferase activity over basal level; read-out: V9M-SC3 Reporter activity (2.5 μM) (%)
Each record here notes measured activation at […].
Field note: include the unit after the figure.

COC(=O)CN(c1cc(OC)ccc1OC)S(=O)(=O)c1ccccc1 [SW202980]	-27.6%

Incoming: What does the record list as activation at […] for COc1ccc(OC)c(N(CC(=O)Nc2ccnc(Cl)c2)S(=O)(=O)c2ccccc2)c1 [SW202946] ?
Outgoing: 64.6%

Incoming: What does the record list as activation at […] for COc1ccc(OC)c(N(C(C)C(=O)Nc2cccnc2)S(=O)(=O)c2ccccc2)c1 (stereo not shown) [SW202991] ?
Outgoing: -25%

Incoming: What does the record list as activation at […] for COc1ccc(OC)c(N(CC(=O)Nc2ccc(Cl)nc2)S(=O)(=O)c2ccccc2)c1 [SW202970] ?
Outgoing: 32.7%
